Origin of values: patent US6884906B2

# Tested on: oral cavity
# TEST SUMMARY: Flavor and sensory characteristics at use level of 25 ppm in water
# Assay type: in vivo
Give criterion met when the value for Cooling Duration is at least 10 min. Give criterion not met when it is less.

Illustrative cases are given below, each with its answer.
CNC(=O)CCC(=O)O[C@@H]1C[C@H](C)CC[C@H]1C(C)C = criterion not met
CC(C)[C@@H]1CC[C@@H](C)C[C@H]1OC(=O)CCC(N)=O = criterion not met
CCNC(=O)CCC(=O)O[C@@H]1C[C@H](C)CC[C@H]1C(C)C = criterion not met
CC(C)[C@@H]1CC[C@@H](C)C[C@H]1OC(=O)CCC(=O)NCCO [Example I(E)] = criterion met
CC(C)[C@@H]1CC[C@@H](C)C[C@H]1OC(=O)CCCCC(=O)O = criterion met

API: above_or_equal(metric=Cooling Duration, cutoff=10 min) for item `CC(C)[C@@H]1CC[C@@H](C)C[C@H]1OC(=O)CCC(=O)N(C)C`
criterion met
